Examples of substances with documented pEC50 follow.
Target: human GIP receptor (hGIPR) (Homo sapiens)
Construct: expressed in transfected cells
Sequence (P48546 22-466): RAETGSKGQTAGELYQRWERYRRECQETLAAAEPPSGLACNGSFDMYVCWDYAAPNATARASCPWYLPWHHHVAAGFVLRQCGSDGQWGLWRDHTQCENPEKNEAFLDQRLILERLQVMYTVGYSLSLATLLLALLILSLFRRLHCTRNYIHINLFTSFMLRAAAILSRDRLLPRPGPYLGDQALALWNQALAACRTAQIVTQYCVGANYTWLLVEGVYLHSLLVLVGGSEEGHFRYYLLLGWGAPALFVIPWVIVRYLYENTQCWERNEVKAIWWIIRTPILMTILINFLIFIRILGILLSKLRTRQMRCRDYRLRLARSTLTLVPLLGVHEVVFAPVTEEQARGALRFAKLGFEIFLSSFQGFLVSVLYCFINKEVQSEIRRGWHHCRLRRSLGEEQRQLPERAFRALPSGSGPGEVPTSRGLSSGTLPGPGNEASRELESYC
Experiment: GIP receptor assay, method A (CRE-luciferase reporter, BHK cells)
Format: cell-based
Conditions: hGIPR Potency, 1% HSA, EC50, method A, in the presence of 1% HSA
pEC50: −log10 of the molar value. Numbered stars: 1 amine (or outer) side, 2 acyl side, 3 side chain; on linkers, the order of the positions; unused ones are H or OH. Square brackets hold non-standard residues; d marks the D form. Side chains are listed from the residue outwards. * marks the point of attachment. C18 diacid = O=C(O)CCCCCCCCCCCCCCCCC(=O)*; γGlu = O=C(O)[C@H](CCC(=O)[*:2])N[*:1]; AEEA = NCCOCCOCC(=O)O; Aib = CC(C)(N)C(=O)O
quantityKind: pEC50

{"substance": "H[Aib]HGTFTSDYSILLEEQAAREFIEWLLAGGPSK([AEEA-AEEA-γGlu-C18 diacid])GEASQLSTAALGRLSAELHQLATLPRTETGSGSP-NH2 [Compound 64]", "assayedTarget": "human GIP receptor (hGIPR) (Homo sapiens)", "measuredResult": 10.00}
{"substance": "Y[Aib]EGTFTSDYSILLEEQAAREFIEWLLAGGPSSGAGQAPGQAPLASHLSTAQTQRLSAELHK([AEEA-AEEA-γGlu-C18 diacid])LATLPRTETGSGSP-NH2 [compound 58]", "assayedTarget": "human GIP receptor (hGIPR) (Homo sapiens)", "measuredResult": 11.12}
{"substance": "Y[Aib]EGTFTSDYSILLEEQAAREFIEWLLAGGPSRGAPPPSGGGEASHLSTQTQGRLSAELHK([AEEA-AEEA-γGlu-C18 diacid])LATLPRTETGSGSP-NH2 [Compound 72]", "assayedTarget": "human GIP receptor (hGIPR) (Homo sapiens)", "measuredResult": 11.01}

====

target: human amylin receptor (hAMYR3) (Homo sapiens, UniProt O60896+P30988); construct: host or cells: BHK cells (Hollex-1 line expressing hCTR(a) and CRE-Luc), further transfected with human RAMP3; test: Amylin receptor assay, method A (CRE-luciferase reporter, BHK cells); type: cell-based; conditions: hAMYR3 Potency, 1% HSA, EC50, method A, in the presence of 1% HSA
Sequence (P30988 25-474): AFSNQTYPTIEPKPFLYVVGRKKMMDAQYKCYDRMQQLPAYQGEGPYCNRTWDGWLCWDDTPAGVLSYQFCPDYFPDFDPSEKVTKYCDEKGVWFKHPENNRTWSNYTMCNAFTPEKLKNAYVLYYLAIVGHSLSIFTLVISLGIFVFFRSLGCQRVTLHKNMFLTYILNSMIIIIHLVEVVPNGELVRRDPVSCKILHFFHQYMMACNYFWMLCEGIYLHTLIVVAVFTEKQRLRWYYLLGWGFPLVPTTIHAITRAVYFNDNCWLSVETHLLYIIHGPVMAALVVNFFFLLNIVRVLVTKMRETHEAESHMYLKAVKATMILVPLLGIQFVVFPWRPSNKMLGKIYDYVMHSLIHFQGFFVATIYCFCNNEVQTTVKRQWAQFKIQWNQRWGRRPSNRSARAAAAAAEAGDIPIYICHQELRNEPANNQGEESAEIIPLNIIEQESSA
Sequence (O60896 24-148): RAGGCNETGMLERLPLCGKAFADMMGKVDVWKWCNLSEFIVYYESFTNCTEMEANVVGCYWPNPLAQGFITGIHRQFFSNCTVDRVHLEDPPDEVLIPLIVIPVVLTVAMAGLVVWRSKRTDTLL
pEC50: −log10 of the molar value. Numbered stars: 1 amine (or outer) side, 2 acyl side, 3 side chain; on linkers, the order of the positions; unused ones are H or OH. Square brackets hold non-standard residues; d marks the D form. Side chains are listed from the residue outwards. * marks the point of attachment. C18 diacid = O=C(O)CCCCCCCCCCCCCCCCC(=O)*; γGlu = O=C(O)[C@H](CCC(=O)[*:2])N[*:1]; AEEA = NCCOCCOCC(=O)O; Aib = CC(C)(N)C(=O)O
Examples of substances with documented pEC50 follow.
quantityKind: pEC50

{"substance": "Y[Aib]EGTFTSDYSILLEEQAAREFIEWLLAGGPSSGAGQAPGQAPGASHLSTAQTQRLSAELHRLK([AEEA-AEEA-AEEA-γGlu-C18 diacid])TLPRTETGSGSP-NH2 [Compound 111]", "measuredResult": 10.18}
{"substance": "Y[Aib]EGTFTSDYSILLEEQAAREFIEWLLAGGPSSGAGQAPGQAPGASHLSTAQTARLSAELHK([AEEA-AEEA-γGlu-C18 diacid])LATLPRTETGSGSP-NH2 [Compound 113]", "measuredResult": 9.87}
{"substance": "Y[Aib]EGTFTSDYSILLEEQAAREFIEWLLAGGPSGGEASHLSTAQTQRLSAELHK([AEEA-AEEA-γGlu-C18 diacid])LATLPRTETGSGSP-NH2 [Compound 74]", "measuredResult": 9.87}
{"substance": "H[Aib]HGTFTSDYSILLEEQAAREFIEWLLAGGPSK([AEEA-AEEA-γGlu-C18 diacid])GAPPPSGGGGASELSTAALGRLSAELHRLATLPRTETGSGSP-NH2 [Compound 14]", "measuredResult": 10.48}
{"substance": "Y[Aib]EGTFTSDYSILLEEQAAREFIEWLLAGGPSSGALQAPGQAPLASHLSTAQTARLSAELHK([AEEA-AEEA-γGlu-C18 diacid])LATLPRTETGSGSP-NH2 [Compound 105]", "measuredResult": 9.95}
{"substance": "Y[Aib]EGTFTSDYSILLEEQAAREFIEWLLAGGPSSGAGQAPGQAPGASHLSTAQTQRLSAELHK([AEEA-AEEA-γGlu-C18 diacid])LATLPRTETGSGSP-NH2 [compound 52]", "measuredResult": 9.93}
{"substance": "H[Aib]HGTFTSDYSILLEEQAAREFIEWLLAGGPSRGEASHLSTAQTQRLSAELHK([AEEA-AEEA-γGlu-C18 diacid])LATLPRTETGSGSP-NH2 [Compound 69]", "measuredResult": 10.10}
{"substance": "H[Aib]HGTFTSDYSILLEEQAAREFIEWLLAGGPSSGALQAPGQAPGASHLSTAQTARLSAELHRLATLPK([AEEA-AEEA-γGlu-C18 diacid])TETGSGSP-NH2 [Compound 107]", "measuredResult": 10.03}
{"substance": "H[Aib]HGTFTSDYSILLEEQAAREFIEWLLAGGPSSGEASHLSTAALGRLSAELHRLATLPK([AEEA-AEEA-γGlu-C18 diacid])TETGSGSP-NH2 [Compound 90]", "measuredResult": 9.74}
{"substance": "H[Aib]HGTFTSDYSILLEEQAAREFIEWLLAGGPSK([AEEA-AEEA-γGlu-C18 diacid])GEASQLSTAALGRLSAELHRLATLPRTETGSGSP-NH2 [Compound 73]", "measuredResult": 10.21}
{"substance": "Y[Aib]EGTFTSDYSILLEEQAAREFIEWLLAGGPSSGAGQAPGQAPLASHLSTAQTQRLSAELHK([AEEA-AEEA-γGlu-C18 diacid])LATLPRTETGSGSP-NH2 [compound 58]", "measuredResult": 9.87}

====

Test system: Male Sprague Dawley (SD) rats
Experiment: Efficacy testing on appetite: acute food intake in ad libitum fed normal weight rats
Format: in vivo, rat
Conditions: single dose 10 nmol/kg, day 2 [24-48 hours]
From the text: Male Sprague Dawley (SD) rats from Taconic, Denmark were used for the acute food intake experiments, wherein the principles of laboratory animal care were followed. The rats arrived at least 10-14 days before the start of the experiment to allow acclimatization to experimental settings. […] In each cage there were animals from three different treatment groups (to eliminate potential cage effects (e.g. cage malfunction) on primary readout: food intake). […]
Numbered stars: 1 amine (or outer) side, 2 acyl side, 3 side chain; on linkers, the order of the positions; unused ones are H or OH. Square brackets hold non-standard residues; d marks the D form. Side chains are listed from the residue outwards. * marks the point of attachment. C20 diacid = O=C(O)CCCCCCCCCCCCCCCCCCC(=O)*; C18 diacid = O=C(O)CCCCCCCCCCCCCCCCC(=O)*; C16 diacid = O=C(O)CCCCCCCCCCCCCCC(=O)*; γGlu = O=C(O)[C@H](CCC(=O)[*:2])N[*:1]; AEEA = NCCOCCOCC(=O)O; Aib = CC(C)(N)C(=O)O
Examples of substances with documented Food intake (relative to vehicle) Day 2 follow.

{"substance": "H[Aib]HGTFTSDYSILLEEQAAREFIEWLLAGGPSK([AEEA-AEEA-γGlu-C20 diacid])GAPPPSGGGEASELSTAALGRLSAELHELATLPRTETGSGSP-NH2 [Compound 16]", "assayedTarget": "Male Sprague Dawley (SD) rats", "Food intake (relative to vehicle) Day 2 [%]": "−11"}
{"substance": "Y[Aib]EGTFTSDYSILLEEQAAREFIEWLLAGGPSSGAGQAPGQAPGASHLSTAALGRLSAELHK([AEEA-AEEA-γGlu-C18 diacid])LATLPRTETGSGSP-NH2 [Compound 53]", "assayedTarget": "Male Sprague Dawley (SD) rats", "Food intake (relative to vehicle) Day 2 [%]": "−90"}
{"substance": "H[Aib]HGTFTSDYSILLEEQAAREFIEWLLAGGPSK([AEEA-AEEA-γGlu-C18 diacid])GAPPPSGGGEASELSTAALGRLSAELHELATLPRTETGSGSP-NH2 [Compound 15]", "assayedTarget": "Male Sprague Dawley (SD) rats", "Food intake (relative to vehicle) Day 2 [%]": "−42"}
{"substance": "H[Aib]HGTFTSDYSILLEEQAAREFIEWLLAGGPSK([AEEA-AEEA-γGlu-C16 diacid])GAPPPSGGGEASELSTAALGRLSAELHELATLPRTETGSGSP-NH2 [Compound 12]", "assayedTarget": "Male Sprague Dawley (SD) rats", "Food intake (relative to vehicle) Day 2 [%]": "−39"}
{"substance": "Y[Aib]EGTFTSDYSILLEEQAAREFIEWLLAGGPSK([AEEA-AEEA-γGlu-C18 diacid])GGQAPGQAPGEASHLSTAQTQRLSAELHELATLPRTETGSGSP-NH2 [Compound 38]", "assayedTarget": "Male Sprague Dawley (SD) rats", "Food intake (relative to vehicle) Day 2 [%]": "−19"}
{"substance": "Y[Aib]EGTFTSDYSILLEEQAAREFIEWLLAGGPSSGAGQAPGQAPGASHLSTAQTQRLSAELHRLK([AEEA-AEEA-γGlu-C18 diacid])TLPRTETGSGSP-NH2 [Compound 56]", "assayedTarget": "Male Sprague Dawley (SD) rats", "Food intake (relative to vehicle) Day 2 [%]": "−77"}
{"substance": "H[Aib]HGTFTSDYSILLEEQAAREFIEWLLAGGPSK([AEEA-AEEA-γGlu-C16 diacid])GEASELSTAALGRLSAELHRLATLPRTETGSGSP-NH2 [Compound 17]", "assayedTarget": "Male Sprague Dawley (SD) rats", "Food intake (relative to vehicle) Day 2 [%]": "−78"}
{"substance": "Y[Aib]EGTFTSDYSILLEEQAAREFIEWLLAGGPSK([AEEA-AEEA-γGlu-C16 diacid])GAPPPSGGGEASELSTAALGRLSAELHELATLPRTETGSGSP-NH2 [compound 10]", "assayedTarget": "Male Sprague Dawley (SD) rats", "Food intake (relative to vehicle) Day 2 [%]": "−4"}
{"substance": "H[Aib]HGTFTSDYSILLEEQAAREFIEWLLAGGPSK([AEEA-AEEA-γGlu-C16 diacid])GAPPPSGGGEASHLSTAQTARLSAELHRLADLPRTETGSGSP-NH2 [Compound 61]", "assayedTarget": "Male Sprague Dawley (SD) rats", "Food intake (relative to vehicle) Day 2 [%]": "−92"}
{"substance": "Y[Aib]EGTFTSDYSILLEEQAAREFIEWLLAGGPSSGALQAPGQAPLASHLSTAQTQRLSAELHK([AEEA-AEEA-γGlu-C20 diacid])LATLPRTETGSGSP-NH2 [Compound 99]", "assayedTarget": "Male Sprague Dawley (SD) rats", "Food intake (relative to vehicle) Day 2 [%]": "−84"}
{"substance": "Y[Aib]EGTFTSDYSILLEEQAAREFIEWLLAGGPSSGEASHLSTAQTQRLSAK([AEEA-AEEA-γGlu-C18 diacid])LHRLATLPRTETGSGSP-NH2 [Compound 79]", "assayedTarget": "Male Sprague Dawley (SD) rats", "Food intake (relative to vehicle) Day 2 [%]": "−54"}
